target-or-test-system: Recombinant human TPH1 (MBP tagged) (Homo sapiens, UniProt P17752)
Construct: cloning full length human TPH1 cDNA in to a bacterial pMAL-c5E expression vector; made in house; host or cells: E. coli BL21 (DE3)
Sequence (P17752 whole entry): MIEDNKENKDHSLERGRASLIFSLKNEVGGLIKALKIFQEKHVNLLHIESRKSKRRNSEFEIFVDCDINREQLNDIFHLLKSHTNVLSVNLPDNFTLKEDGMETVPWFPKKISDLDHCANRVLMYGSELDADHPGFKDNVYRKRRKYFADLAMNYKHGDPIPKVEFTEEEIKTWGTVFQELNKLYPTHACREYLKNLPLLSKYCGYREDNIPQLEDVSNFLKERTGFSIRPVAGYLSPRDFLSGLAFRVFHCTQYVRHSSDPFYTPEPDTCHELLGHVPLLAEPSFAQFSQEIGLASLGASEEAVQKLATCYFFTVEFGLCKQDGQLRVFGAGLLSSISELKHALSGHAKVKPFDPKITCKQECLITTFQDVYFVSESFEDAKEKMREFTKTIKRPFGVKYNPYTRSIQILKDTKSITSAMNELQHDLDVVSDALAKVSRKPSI
assay-text: TPH1 in vitro inhibition assay (kinetic fluorescence)
Type: biochemical
test-conditions: read-out: TPH1 Range (TPH1 inhibition IC50)
property-label: IC50

Task item: Name the reported IC50 value associated with the compound C=CC(=O)NCc1cccc(-c2cc(Cl)ccc2[C@@H](Oc2cc(N3CCC4(CC3)CN[C@H](C(=O)O)C4)nc(N)n2)C(F)(F)F)c1 [Example 34aa]
Reply: < 50 nM

Task item: Could you share which IC50 value was measured for Cc1ccn(-c2cc(Br)ccc2[C@@H](Oc2cc(N3CCC4(CC3)CN[C@H](C(=O)O)C4)nc(C)n2)C(F)(F)F)n1 ?
Reply: 50 to 300 nM

Task item: Query (compound): Nc1nc(O[C@H](c2ccc(-c3ccc(C(F)(F)F)cc3)cc2)C(F)(F)F)cc(N2CCC3(CC2)CN[C@H](C(=O)O)C3)n1 [Example 55cd] ; field requested: IC50
Reply: 300 to 3000 nM

Task item: Which IC50 is reported for this compound? CC(C)Oc1ccc(-c2ccc([C@@H](Oc3cc(N4CCC5(CC4)CN[C@H](C(=O)O)C5)nc(N)n3)C(F)(F)F)cc2)cc1 [Example 55bv]
Reply: 300 to 3000 nM

Task item: // query IC50 value for entry Nc1nc(O[C@H](c2ccc(Cl)cc2-c2ccc(Cl)s2)C(F)(F)F)cc(N2CCC3(CC2)CN[C@H](C(=O)O)C3)n1 [Example 34s]
Reply: 50 to 300 nM

Task item: Request the reported IC50 associated with COc1ccc(-c2ccc([C@@H](Oc3cc(N4CCC5(CC4)CN[C@H](C(=O)O)C5)nc(N)n3)C(F)(F)F)cc2)cc1 [Example 55aq]
Reply: 50 to 300 nM
